Test system: KM12 colon
ASSAY INFO: NCI tumour cell line growth inhibition, 48 h
Listed compounds paired with reported TGI

COMPOUND: C=C(C)[C@@H]1CC[C@]2(C)[C@H](C(=O)C=C3[C@@H]4C[C@](C)(C(=O)N5CCN(C)CC5)CC[C@]4(C)CC[C@]32C)[C@@]1(C)CCC#N
TGI: 13.4 µM

COMPOUND: O=c1cc(N2CCOCC2)[nH]c(=O)n1-c1cccc(C(F)(F)F)c1
TGI: > 100 µM

COMPOUND: CCCCC(C)C1CCC2(C)C=CC(=O)C(C)=C2C1O (stereo not drawn)
TGI: > 100 µM

---

System: NCI/ADR-RES ovarian
ASSAY INFO: NCI tumour cell line growth inhibition, 48 h
Listed compounds paired with reported log10 TGI
METRIC: log10 TGI (log10 of the value in µM)

COMPOUND: Cn1nc(/C=C\C(=O)N2CC(CCl)c3c2cc(N)c2ccccc32)cc1/C=C/C(=O)N1CC(CCl)c2c1cc(N)c1ccccc21 (configuration not stated)
TESTED ON: NCI/ADR-RES ovarian
METRIC: log10 TGI
ENDPOINT VALUE: -0.53

COMPOUND: CC1=C2c3c(C)ccc4ccc(C)c(c34)C2(O)C(C)C1=O (configuration not stated)
TESTED ON: NCI/ADR-RES ovarian
METRIC: log10 TGI
ENDPOINT VALUE: 1.88

COMPOUND: S=C(N/N=C(/c1ccccc1)c1ccccn1)Nc1ccccc1Cl
TESTED ON: NCI/ADR-RES ovarian
METRIC: log10 TGI
ENDPOINT VALUE: 0.71

COMPOUND: N#Cc1c(-c2ccc([N+](=O)[O-])cc2)cc(-c2ccc(Nc3ccnc4cc(C(F)(F)F)ccc34)cc2)nc1N
TESTED ON: NCI/ADR-RES ovarian
METRIC: log10 TGI
ENDPOINT VALUE: 1.55

COMPOUND: N#Cc1c(-c2ccc(Cl)cc2)n(O)c2ccccc12
TESTED ON: NCI/ADR-RES ovarian
METRIC: log10 TGI
ENDPOINT VALUE: 0.62

COMPOUND: CCCc1cc(=O)oc2c3c(c4c(c12)OC(C)(C)C=C4)O[C@@H](C)[C@H](C)C3=O
TESTED ON: NCI/ADR-RES ovarian
METRIC: log10 TGI
ENDPOINT VALUE: 1.55

COMPOUND: C=C(C)[C@@H]1CC[C@]2(C)[C@H](C(=O)C=C3[C@@H]4C[C@](C)(C(=O)N5CCN(C)CC5)CC[C@]4(C)CC[C@]32C)[C@@]1(C)CCC#N
TESTED ON: NCI/ADR-RES ovarian
METRIC: log10 TGI
ENDPOINT VALUE: 1.14

COMPOUND: CN1CN(c2ccccc2)C2(CCN(CCCSc3ccccc3NC(=O)/C=C/c3ccccc3)CC2)C1=O
TESTED ON: NCI/ADR-RES ovarian
METRIC: log10 TGI
ENDPOINT VALUE: 1.35

COMPOUND: COc1ccc(-c2ccc(/C=N/n3c(COc4ccccc4Cl)nn(CN4CCN(C)CC4)c3=S)o2)c([N+](=O)[O-])c1
TESTED ON: NCI/ADR-RES ovarian
METRIC: log10 TGI
ENDPOINT VALUE: 1.62

COMPOUND: CC(=O)Nc1ccc(Sc2ccc([N+](=O)[O-])o2)cc1
TESTED ON: NCI/ADR-RES ovarian
METRIC: log10 TGI
ENDPOINT VALUE: 1.05

COMPOUND: CC1OC(OC2C(O[C@H]3CC[C@@]4(C)[C@@H](CC[C@@H]5[C@@H]4CC[C@]4(C)[C@@H]6[C@H](C[C@@H]54)O[C@]4(CC[C@@H](C)CO4)[C@H]6C)C3)OC(CO)C(OC3OC(CO)C(O)C(OC4OCC(O)C(O)C4O)C3OC3OCC(O)C(O)C3O)C2O)C(O)C(O)C1O (some centres not stated)
TESTED ON: NCI/ADR-RES ovarian
METRIC: log10 TGI
ENDPOINT VALUE: 0.50
